Test: Half life in rat at 15 mg/kg, iv and po
Format: ADME, organism-based
Parameters: dose 15 mg/kg, route oral
Settings: in vivo
QUANTITY NAME: half-life (min)

| SMILES CODE | QUANTITY NAME | RESULT NUMBER |
| --- | --- | --- |
| CCC(=O)N1CCN(C(=O)c2cc(Cc3n[nH]c(=O)c4ccccc34)ccc2F)CC1 | half-life | 55 |
| O=C(c1cc(Cc2n[nH]c(=O)c3ccccc23)ccc1F)N1CCN(C(=O)C2CC2)CC1 | half-life | 53 |

----------
The following molecules are shown together with reported PF50 values.
Tested on: HeLa
Experiment: Potentiation factor, ratio of IC50 for methyl methanesulfonate to IC50 for methyl methanesulfonate with 200 nM drug for inhibition of human HeLa B cells

| MOLECULE | PF50 |
| --- | --- |
| CCS(=O)(=O)N1CCN(C(=O)c2cccc(Cc3n[nH]c(=O)c4ccccc34)c2)CC1 | 4.6 |
| O=C(c1cc(Cc2n[nH]c(=O)c3ccccc23)ccc1F)N1CCN(C(=O)C2CC2)CC1 | 25.8 |
| CCN1CCN(C(=O)c2cc(Cc3n[nH]c(=O)c4ccccc34)ccc2F)CC1 | 7.7 |
| O=C(c1cc(Cc2n[nH]c(=O)c3ccccc23)ccc1F)N1CCN(C(=O)C2CCOC2)CC1 (stereo not given) | 29.8 |
| O=C(c1ccccc1)N1CCN(C(=O)c2cccc(Cc3n[nH]c(=O)c4ccccc34)c2)CC1 | 7.2 |
